molecular target: EGFR (Homo sapiens); experiment: EGF-induced BrdU incorporation assay; assay type: cell-based; parameters: expressed in transfected cells; host or cells: 3T3; details: Table 5; 3T3 cells expressing human EGF-R, EGF 2 nM; read-out: BrdU DNA syn. EGFr IC50
Sequence (P00533 25-1210): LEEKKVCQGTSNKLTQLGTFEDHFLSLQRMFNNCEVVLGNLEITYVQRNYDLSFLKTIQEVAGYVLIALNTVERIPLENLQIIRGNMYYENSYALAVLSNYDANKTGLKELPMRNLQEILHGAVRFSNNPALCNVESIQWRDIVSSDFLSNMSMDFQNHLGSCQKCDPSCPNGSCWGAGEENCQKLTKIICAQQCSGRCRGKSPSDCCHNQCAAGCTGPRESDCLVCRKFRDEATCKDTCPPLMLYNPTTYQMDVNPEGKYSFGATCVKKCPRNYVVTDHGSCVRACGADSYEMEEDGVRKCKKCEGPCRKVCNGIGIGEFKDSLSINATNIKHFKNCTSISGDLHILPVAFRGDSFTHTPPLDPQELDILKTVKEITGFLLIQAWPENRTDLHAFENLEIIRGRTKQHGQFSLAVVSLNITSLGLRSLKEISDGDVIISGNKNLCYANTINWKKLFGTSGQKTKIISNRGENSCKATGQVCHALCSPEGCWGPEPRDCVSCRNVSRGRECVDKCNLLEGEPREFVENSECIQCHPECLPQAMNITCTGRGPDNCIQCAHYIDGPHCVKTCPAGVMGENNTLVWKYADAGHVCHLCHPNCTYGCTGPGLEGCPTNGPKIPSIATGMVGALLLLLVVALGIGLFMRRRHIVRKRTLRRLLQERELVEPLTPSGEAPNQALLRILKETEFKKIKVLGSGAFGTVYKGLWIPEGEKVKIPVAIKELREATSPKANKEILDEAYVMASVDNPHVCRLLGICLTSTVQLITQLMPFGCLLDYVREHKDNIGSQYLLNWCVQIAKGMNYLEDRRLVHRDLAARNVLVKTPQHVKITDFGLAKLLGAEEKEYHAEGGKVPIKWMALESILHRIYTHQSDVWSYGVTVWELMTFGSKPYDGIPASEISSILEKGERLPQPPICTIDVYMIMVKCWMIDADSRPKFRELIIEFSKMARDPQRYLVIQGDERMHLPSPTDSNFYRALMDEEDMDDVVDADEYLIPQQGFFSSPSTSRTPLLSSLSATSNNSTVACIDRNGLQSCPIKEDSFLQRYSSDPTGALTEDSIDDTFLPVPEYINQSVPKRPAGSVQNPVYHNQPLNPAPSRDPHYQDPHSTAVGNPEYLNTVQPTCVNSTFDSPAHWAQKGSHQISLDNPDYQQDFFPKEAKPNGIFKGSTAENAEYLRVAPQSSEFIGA
pIC50: −log10 of the molar value.
Consider the following compounds; for each one, report its pIC50.

Example compounds with recorded pIC50:
{"columns": ["Compound", "pIC50"],
 "data": [
  ["COc1cccc(-c2ccc3c(c2)NC(=O)C3Cc2ccccc2O)c1 (centres unmarked) [AAI-13]", "< 4.30"],
  ["COc1ccccc1-c1ccc2c(c1)NC(=O)C2Cc1[nH]c(C)c(CCCN(C)C)c1C (centres unmarked) [AAI-20]", 4.41],
  ["COc1ccc(CC2C(=O)Nc3cc(NC(C)=O)ccc32)cc1-c1cccs1 (centres unmarked) [AAI-6]", "< 4.30"],
  ["Cc1[nH]c(CC2C(=O)Nc3ccccc32)c(C)c1CCCN(C)C (centres unmarked) [AAI-18]", "< 4.30"]
]}

Please state pIC50 for every compound in the list that follows.
1. O=C1Nc2ccc(F)cc2C1Cc1ccc(O)c(C2CCCC2)c1 (centres unmarked) [AAI-11]
2. COc1ccc(CC2C(=O)Nc3ccc(CCN4CCOCC4)cc32)cc1-c1ccsc1 (centres unmarked) [AAI-8]
3. COc1ccc(-c2ccc3c(c2)NC(=O)C3Cc2[nH]c(C)c(CCCN(C)C)c2C)cc1 (centres unmarked) [AAI-22]
4. Cc1cccc2c1C(Cc1ccc3[nH]ccc3c1)C(=O)N2 (centres unmarked) [AAI-16]
5. CC(=O)Nc1ccc2c(c1)NC(=O)C2Cc1ccc(OCCN2CCOCC2)c(C2CCCCC2)c1 (centres unmarked) [AAI-7]
6. COc1c(C(C)C)cc(CC2C(=O)Nc3ccccc32)cc1C(C)C (centres unmarked) [AAI-10]
7. Cc1[nH]c(CC2C(=O)Nc3ccc(Cl)cc32)c(C)c1CCCN(C)C (centres unmarked) [AAI-23]
8. Cc1cccc(CC2C(=O)Nc3cccc(CCO)c32)n1 (centres unmarked) [AAI-27]

< 4.30
< 4.30
4.56
< 4.30
4.55
< 4.30
4.49
< 4.30

Please state pIC50 for every compound in the list that follows.
1. COc1ccc(CC2C(=O)Nc3ccc(F)cc32)cc1C1CCCC1 (centres unmarked) [AAI-5]
2. COc1cccc(-c2ccc3c(c2)NC(=O)C3Cc2[nH]c(C)c(CCCN(C)C)c2C)c1 (centres unmarked) [AAI-21]
3. O=C1Nc2ccccc2C1Cc1ccc2[nH]ccc2c1 (centres unmarked) [AAI-17]
4. COc1ccc(CC2C(=O)Nc3cc(-c4ccccc4)ccc32)c(O)c1 (centres unmarked) [AAI-25]
5. O=C1Nc2cc(-c3ccccc3)ccc2C1Cc1cccc(F)c1O (centres unmarked) [AAI-24]

1. 4.52
2. 4.56
3. < 4.30
4. < 4.30
5. < 4.30
